Molecular target: GP IIb IIIa (Homo sapiens, UniProt P05106+P08514)
Construct: from tissue; host or cells: outdated human platelets
Sequence (P08514 32-887 limits assumed): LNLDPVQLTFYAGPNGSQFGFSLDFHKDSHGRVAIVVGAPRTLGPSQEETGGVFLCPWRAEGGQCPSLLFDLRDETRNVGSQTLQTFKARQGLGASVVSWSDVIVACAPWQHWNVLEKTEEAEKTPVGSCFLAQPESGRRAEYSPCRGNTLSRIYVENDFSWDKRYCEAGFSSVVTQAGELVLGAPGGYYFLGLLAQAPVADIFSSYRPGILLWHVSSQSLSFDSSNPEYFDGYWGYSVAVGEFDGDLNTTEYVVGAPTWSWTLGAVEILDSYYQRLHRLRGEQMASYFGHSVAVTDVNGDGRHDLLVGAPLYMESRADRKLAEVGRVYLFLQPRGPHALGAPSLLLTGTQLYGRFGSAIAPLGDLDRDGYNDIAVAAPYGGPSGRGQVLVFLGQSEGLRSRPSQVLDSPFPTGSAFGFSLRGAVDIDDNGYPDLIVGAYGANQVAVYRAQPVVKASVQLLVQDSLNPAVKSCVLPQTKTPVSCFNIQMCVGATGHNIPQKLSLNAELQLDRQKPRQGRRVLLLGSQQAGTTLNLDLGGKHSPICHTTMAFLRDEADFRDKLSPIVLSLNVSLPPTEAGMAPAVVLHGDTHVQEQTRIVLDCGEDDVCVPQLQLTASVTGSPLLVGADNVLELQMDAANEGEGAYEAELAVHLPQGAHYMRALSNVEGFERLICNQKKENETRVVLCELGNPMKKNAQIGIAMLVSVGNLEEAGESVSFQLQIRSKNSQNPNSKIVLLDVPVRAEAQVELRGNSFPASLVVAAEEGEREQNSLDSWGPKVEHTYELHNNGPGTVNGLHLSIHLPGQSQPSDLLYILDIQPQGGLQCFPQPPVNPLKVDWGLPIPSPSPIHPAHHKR
Sequence (P08514 891-1039 partner limits assumed): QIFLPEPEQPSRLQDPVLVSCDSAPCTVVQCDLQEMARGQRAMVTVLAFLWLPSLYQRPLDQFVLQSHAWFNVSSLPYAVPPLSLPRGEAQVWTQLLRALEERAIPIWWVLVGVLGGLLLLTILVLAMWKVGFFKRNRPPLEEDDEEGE
Sequence (P05106 27-788): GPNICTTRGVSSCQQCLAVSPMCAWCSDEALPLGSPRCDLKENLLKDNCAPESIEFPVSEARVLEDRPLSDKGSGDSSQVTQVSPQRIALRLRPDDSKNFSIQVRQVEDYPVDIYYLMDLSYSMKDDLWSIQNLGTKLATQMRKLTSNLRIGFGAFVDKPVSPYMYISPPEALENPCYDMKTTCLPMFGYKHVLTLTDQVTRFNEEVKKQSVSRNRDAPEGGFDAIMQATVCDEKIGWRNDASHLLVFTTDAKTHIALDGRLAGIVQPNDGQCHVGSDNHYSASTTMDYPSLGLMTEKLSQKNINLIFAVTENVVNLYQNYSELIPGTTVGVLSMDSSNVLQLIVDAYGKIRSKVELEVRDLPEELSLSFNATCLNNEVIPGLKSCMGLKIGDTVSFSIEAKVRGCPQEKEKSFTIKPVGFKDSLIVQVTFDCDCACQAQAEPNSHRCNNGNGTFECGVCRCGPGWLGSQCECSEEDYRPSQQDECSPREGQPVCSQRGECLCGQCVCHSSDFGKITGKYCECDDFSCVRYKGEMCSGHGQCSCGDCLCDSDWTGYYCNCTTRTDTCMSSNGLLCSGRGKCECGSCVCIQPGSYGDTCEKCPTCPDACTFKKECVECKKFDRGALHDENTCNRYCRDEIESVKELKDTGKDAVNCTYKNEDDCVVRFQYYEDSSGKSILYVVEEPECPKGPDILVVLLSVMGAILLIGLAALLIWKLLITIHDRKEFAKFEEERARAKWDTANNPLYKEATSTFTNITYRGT
Test: Fibrinogen-GP IIb IIIa Receptor ELISA Binding Assay (Fg/IIbIIIa)
Conditions: Example 29, Cmpd # 1-105; read-out: IC50 Fg/IIbI
Where a name gives a salt, the structure may show the parent alone.
readout.label: IC50

• N=C(N)NCCCCCCc1ccc2c(c1)C(=O)N(CCC(=O)O)CC(=O)N2Cc1cccc2ccccc12 [Cmpd 85] = 14 nM
• N=C(N)NCCCCCCCc1ccc2c(c1)C(=O)N(CCC(=O)O)CC(=O)N2Cc1ccc(Cl)cc1 [Cmpd 67] = 200 nM
• CC(=O)NCCCCCCc1ccc2c(c1)C(=O)N(CCC(=O)O)CC(=O)N2Cc1ccc(Cl)cc1 [Cmpd 105] = 8500 nM
• CN1C(=O)CN(CCC(=O)O)C(=O)c2cc(C#CCCCNC(=N)N)ccc21 [Cmpd 34] = 3.6 nM
• CN1C(=O)CN(CCC(=O)O)C(=O)c2cc(C#CCCCN)ccc21 [Cmpd 33] = 96 nM
• NCCCCCc1ccc2c(c1)C(=O)N(CCC(=O)O)CC(=O)N2Cc1cccc2ccccc12 [Cmpd 78] = 66 nM

Fill in IC50 for each of the 7 compounds listed.
1. CN1C(=O)CN(CCC(=O)O)C(=O)c2cc(CCCN)ccc21 [Cmpd 3]
2. CN1C(=O)C(c2ccccc2)N(CCC(=O)O)C(=O)c2cc(CCCN)ccc21 (stereo not drawn) [Cmpd 11]
3. CN1C(=O)CN(CCC(=O)O)C(=O)c2cc(C#CCNC(=N)N)ccc21 [Cmpd 6]
4. CN1C(=O)CN(CCC(=O)O)C(=O)c2cc(CCCCN)ccc21 [Cmpd 19]
5. NCCCC#Cc1ccc2c(c1)C(=O)N(CCC(=O)O)CC(=O)N2Cc1cccc([N+](=O)[O-])c1 [Cmpd 35]
6. COc1ccc(CN2C(=O)CN(CCC(=O)O)C(=O)c3cc(CCCCCCNC(=N)N)ccc32)cc1 [Cmpd 84, trifluoroacetate]
7. N=C(N)NCCCCCCc1ccc2c(c1)C(=O)N(CCC(=O)O)CC(=O)N2Cc1cccc(Oc2ccccc2)c1 [Cmpd 91, trifluoroacetate]

Result string:
1. 28000 nM
2. 600000 nM
3. 170 nM
4. 5000 nM
5. 13 nM
6. 24 nM
7. 9 nM

----------
Biological target: GP IIb IIIa (Homo sapiens, UniProt P05106+P08514)
Construct: from tissue; host or cells: outdated human platelets
Experiment: Fibrinogen-GP IIb IIIa Receptor ELISA Binding Assay (Fg/IIbIIIa)
Conditions: Example 29, Cmpd # 1-105; read-out: IC50 Fg/IIbI
Protocol: Briefly, microtiter plates are coated with fibrinogen (10 mg/ml) and then blocked with TACTS buffer containing 0.5% bovine serum albumin (BSA). […] After another wash a goat anti-mouse IgG conjugated to horseradish peroxidase is added. […] The reaction is stopped with 1N sulfuric acid and the absorbance at 492 nm is recorded. […] The optical density at 492 nm vs 405 nm is recorded and IC50 values are determined.
Where a name gives a salt, the structure may show the parent alone.
Record form. Attribute: IC50. Fill in for each entry.
Please append the unit to your numeric answer.

- CN1C(=O)CN(CCC(=O)O)C(=O)c2cc(C#Cc3cccc(N)c3)ccc21 [Cmpd 49]: 6000 nM
- CN1C(=O)CN(CCC(=O)O)C(=O)c2cc(CCCCCNC(=N)N)ccc21 [Cmpd 28]: 55 nM
- N=C(N)NCCCCCc1ccc2c(c1)C(=O)N(CCC(=O)O)CC(=O)N2Cc1cccc(Oc2ccccc2)c1 [Cmpd 92, trifluoroacetate]: 11 nM

# context switch: different compound, same IC50
Query string: I have this compound here, NCCCCCCc1ccc2c(c1)C(=O)N(CCC(=O)O)CC(=O)N2Cc1ccc(C(F)(F)F)cc1 [Cmpd 90, trifluoroacetate] , and I need its recorded IC50.
Result string: 5 nM

// data source = patent US5250679A
